test: Half life in Sprague-Dawley rat at 1 mg/kg, po; assay type: ADME, organism-based; set-up: dose 1 mg/kg, route oral; conditions: in vivo
reported-endpoint: half-life (h)
A number alone suffices; assume h.

Data request: Given `Cc1ccc(CCCC(=O)c2ccc(CC[C@@](C)(N)CO)n2C)cc1` , state its recorded half-life.
Data returned: 10.4

====

experiment: Cmax in Sprague-Dawley rat at 0.1 mg/kg, po; assay type: ADME, organism-based; design: dose 0.1 mg/kg, route oral; details: in vivo
reported-endpoint: Cmax
# number then unit; no other words

Data request: // query Cmax value for entry `Cc1ccc(CCCC(=O)c2ccc(CC[C@@](C)(N)CO)n2C)cc1`
Data returned: 1.89 ng/mL

====

target: Sphingosine 1-phosphate receptor 3 (Homo sapiens, UniProt Q99500); experiment: Agonist activity at human S1P3R expressed in CHO-K1 cells by [35S]GTPgammaS binding assay
Sequence (Q99500 whole entry): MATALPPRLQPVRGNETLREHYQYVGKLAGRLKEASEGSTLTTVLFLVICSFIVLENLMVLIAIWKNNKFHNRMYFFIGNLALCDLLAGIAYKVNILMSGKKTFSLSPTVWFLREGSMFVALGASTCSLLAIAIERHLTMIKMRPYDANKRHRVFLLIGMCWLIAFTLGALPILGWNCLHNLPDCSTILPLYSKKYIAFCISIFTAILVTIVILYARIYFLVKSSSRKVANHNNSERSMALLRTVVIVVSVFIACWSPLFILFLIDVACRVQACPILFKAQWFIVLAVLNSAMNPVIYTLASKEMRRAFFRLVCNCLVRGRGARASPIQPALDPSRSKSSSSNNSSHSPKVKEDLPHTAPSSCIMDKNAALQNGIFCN
reported-endpoint: EC50 (nM)
Quick reminder: number only, in nM, skip the unit.

Data request: # input molecule: `Cc1ccc(CCCC(=O)c2ccc(CC[C@@](C)(N)COP(=O)(O)O)n2C)cc1` ; wanted: its EC50
Data returned: 350

====

assay: Tmax in Sprague-Dawley rat at 0.1 mg/kg, po; format: ADME, organism-based; parameters: dose 0.1 mg/kg, route oral; conditions: in vivo
reported-endpoint: Tmax
Answer by giving the amount and then stating its unit.

Data request: Given `Cc1ccc(CCCC(=O)c2ccc(CC[C@@](C)(N)CO)n2C)cc1` , state its recorded Tmax.
Data returned: 4.75 h

====

assay: Volume of distribution at steady state in Sprague-Dawley rat at 0.1 mg/kg, iv; type: ADME, organism-based; design: dose 0.1 mg/kg, route intravenous; conditions: in vivo, read-out: Vdss
reported-endpoint: Vd (L/kg)
# value in L/kg; strip the unit string

Data request: So what does the record say about Vd for `Cc1ccc(CCCC(=O)c2ccc(CC[C@@](C)(N)CO)n2C)cc1` ?
Data returned: 17.1

====

molecular target: Sphingosine 1-phosphate receptor 1 (Rattus norvegicus); test: Agonist activity at rat S1P1 receptor expressed in CHO-K1 cells by [35S]GTPgammaS binding assay
Sequence (P48303 whole entry): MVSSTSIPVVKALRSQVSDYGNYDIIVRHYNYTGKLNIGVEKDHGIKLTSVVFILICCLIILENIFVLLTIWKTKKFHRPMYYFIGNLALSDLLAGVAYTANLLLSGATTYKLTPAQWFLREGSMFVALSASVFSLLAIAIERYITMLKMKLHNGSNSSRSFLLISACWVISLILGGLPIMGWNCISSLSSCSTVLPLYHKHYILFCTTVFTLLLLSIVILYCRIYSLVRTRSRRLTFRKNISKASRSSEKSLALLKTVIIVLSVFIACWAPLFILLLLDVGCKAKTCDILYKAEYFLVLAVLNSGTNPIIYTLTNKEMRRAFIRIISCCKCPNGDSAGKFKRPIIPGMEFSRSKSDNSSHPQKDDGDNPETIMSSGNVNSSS
reported-endpoint: pEC50
Answer as the number alone; pEC50 is minus log10 of concentration in mol/L.

Data request: // map `CCCCCCCCc1ccc(CC[C@](N)(CO)COP(=O)(O)O)cc1` to recorded pEC50 (system: Sphingosine 1-phosphate receptor 1 (Rattus norvegicus))
Data returned: 9.54

Data request: // fetch Sphingosine 1-phosphate receptor 1 (Rattus norvegicus) pEC50 for `Cc1ccc(CCCC(=O)c2ccc(CC[C@@](C)(N)COP(=O)(O)O)n2C)cc1`
Data returned: 8.74

====

assay: Total body clearance in Sprague-Dawley rat at 1 mg/kg, iv; assay type: ADME, organism-based; set-up: dose 1 mg/kg, route intravenous; details: in vivo
reported-endpoint: clearance (mL/min/kg)
Respond with the bare value in mL/min/kg.

Data request: I am curious: what clearance value has been reported for `Cc1ccc(CCCC(=O)c2ccc(CC[C@@](C)(N)CO)n2C)cc1` ?
Data returned: 33.7
